System: LOX IMVI
measurement-notes: Cytotoxicity against human LOXIMVI cells at 10 uM
Format: functional
condition-label: read-out: GI
experimental-endpoint: inhibition of growth at 10 µM (%)
Numbers only, in %.

For each listed entry, give its inhibition of growth at 10 µM.
1. Cc1cc(S(=O)(=O)NC(=N)Nc2nnc(S(N)(=O)=O)s2)c(SCc2cccc3ccccc23)cc1Cl
2. Cc1cc(S(=O)(=O)NC(=N)NCc2ccc(S(N)(=O)=O)cc2)c(SCc2ccccc2)cc1Cl
3. Cc1cc(S(=O)(=O)NC(=N)Nc2ccc(S(N)(=O)=O)cc2)c(SCc2ccc(C(F)(F)F)cc2)cc1Cl
4. Cc1cc(S(=O)(=O)NC(=N)Nc2cccc(S(N)(=O)=O)c2)c(SCc2ccc(C(F)(F)F)cc2)cc1Cl
5. Cc1cc(S(=O)(=O)NC(=N)Nc2ccc(S(N)(=O)=O)cc2)c(SCc2cc3c(cc2Cl)OCO3)cc1Cl
6. Cc1cc(S(=O)(=O)NC(=N)Nc2nnc(S(N)(=O)=O)s2)c(SCc2ccccc2)cc1Cl
7. Cc1cc(S(=O)(=O)NC(=N)NCc2ccc(S(N)(=O)=O)cc2)c(SCc2ccc(C(F)(F)F)cc2)cc1Cl
8. Cc1cc(S(=O)(=O)NC(=N)NCc2ccc(S(N)(=O)=O)cc2)c(SCc2cc3c(cc2Cl)OCO3)cc1Cl

Response line:
1. 2
2. 12
3. 29
4. 20
5. 8
6. 4
7. 67
8. 28

Prompt line: Give the measured inhibition of growth at 10 µM of Cc1cc(S(=O)(=O)NC(=N)Nc2cccc(S(N)(=O)=O)c2)c(SCc2ccccc2)cc1Cl .
Response line: 15

====

Hi there, I'd appreciate the recorded inhibition of growth at 10 µM for every entry that follows.
System: DU-145
measurement-notes: Cytotoxicity against human DU145 cells at 10 uM
Format: functional
condition-label: read-out: GI
Answers are plain numbers, in %.

For each listed entry, give its inhibition of growth at 10 µM.
1. Cc1cc(S(=O)(=O)NC(=N)Nc2cccc(S(N)(=O)=O)c2)c(SCc2ccc(C(F)(F)F)cc2)cc1Cl
2. Cc1cc(S(=O)(=O)NC(=N)NCc2ccc(S(N)(=O)=O)cc2)c(SCc2ccc(C(F)(F)F)cc2)cc1Cl
3. Cc1cc(S(=O)(=O)NC(=N)NCc2ccc(S(N)(=O)=O)cc2)c(SCc2cc3c(cc2Cl)OCO3)cc1Cl
4. Cc1cc(S(=O)(=O)NC(=N)Nc2ccc(S(N)(=O)=O)cc2)c(SCc2ccc(C(F)(F)F)cc2)cc1Cl

Response line:
[6, 57, 2, 9]

====

target-system: Carbonic anhydrase 9 (Homo sapiens, UniProt Q16790)
experimental-endpoint: pKi
Answers are plain numbers, as −log10 of the molar value.

Prompt line: Give the measured pKi of NS(=O)(=O)c1ccc2c(c1)CCC2NC(=O)c1c(F)c(F)c(F)c(F)c1F (stereo unspecified) .
Response line: 8.49

====

Hi there, I'd appreciate the recorded inhibition of growth at 10 µM for every entry that follows.
Test system: A549
measurement-notes: Cytotoxicity against human A549 cells at 10 uM
Assay type: functional
condition-label: read-out: GI
Give bare numbers, in %.

{"chem-smiles": "Cc1cc(S(=O)(=O)NC(=N)Nc2ccc(S(N)(=O)=O)cc2)c(SCc2ccc(C(F)(F)F)cc2)cc1Cl", "inhibition of growth at 10 µM, %": 32}

For each listed entry, give its inhibition of growth at 10 µM.
1. Cc1cc(S(=O)(=O)NC(=N)Nc2cccc(S(N)(=O)=O)c2)c(SCc2ccccc2)cc1Cl
2. Cc1cc(S(=O)(=O)NC(=N)Nc2ccc(S(N)(=O)=O)cc2)c(SCc2cc3c(cc2Cl)OCO3)cc1Cl
3. Cc1cc(S(=O)(=O)NC(=N)NCc2ccc(S(N)(=O)=O)cc2)c(SCc2ccccc2)cc1Cl

Response line:
16
4
21

For each listed entry, give its inhibition of growth at 10 µM.
1. Cc1cc(S(=O)(=O)NC(=N)NCc2ccc(S(N)(=O)=O)cc2)c(SCc2ccc(C(F)(F)F)cc2)cc1Cl
2. Cc1cc(S(=O)(=O)NC(=N)NCc2ccc(S(N)(=O)=O)cc2)c(SCc2cc3c(cc2Cl)OCO3)cc1Cl
3. Cc1cc(S(=O)(=O)NC(=N)Nc2cccc(S(N)(=O)=O)c2)c(SCc2ccc(C(F)(F)F)cc2)cc1Cl

Response line:
[60, 30, 36]

====

Hi there, I'd appreciate the recorded inhibition of growth at 10 µM for every entry that follows.
measurement-notes: Cytotoxicity against human Hs 578T cells at 10 uM
Type: functional
condition-label: read-out: GI
One number for each entry, in %.

Study these solved cases before continuing.
{"chem-smiles": "Cc1cc(S(=O)(=O)NC(=N)NCc2ccc(S(N)(=O)=O)cc2)c(SCc2ccc(C(F)(F)F)cc2)cc1Cl", "unit-name": "%", "inhibition of growth at 10 µM": 68}
{"chem-smiles": "Cc1cc(S(=O)(=O)NC(=N)Nc2cccc(S(N)(=O)=O)c2)c(SCc2ccc(C(F)(F)F)cc2)cc1Cl", "unit-name": "%", "inhibition of growth at 10 µM": 13}
{"chem-smiles": "Cc1cc(S(=O)(=O)NC(=N)NCc2ccc(S(N)(=O)=O)cc2)c(SCc2ccccc2)cc1Cl", "unit-name": "%", "inhibition of growth at 10 µM": 44}
{"chem-smiles": "Cc1cc(S(=O)(=O)NC(=N)Nc2cccc(S(N)(=O)=O)c2)c(SCc2ccccc2)cc1Cl", "unit-name": "%", "inhibition of growth at 10 µM": 17}
{"chem-smiles": "Cc1cc(S(=O)(=O)NC(=N)Nc2nnc(S(N)(=O)=O)s2)c(SCc2cccc3ccccc23)cc1Cl", "unit-name": "%", "inhibition of growth at 10 µM": 15}
{"chem-smiles": "Cc1cc(S(=O)(=O)NC(=N)Nc2ccc(S(N)(=O)=O)cc2)c(SCc2cc3c(cc2Cl)OCO3)cc1Cl", "unit-name": "%", "inhibition of growth at 10 µM": 2}
{"chem-smiles": "Cc1cc(S(=O)(=O)NC(=N)Nc2ccc(S(N)(=O)=O)cc2)c(SCc2ccc(C(F)(F)F)cc2)cc1Cl", "unit-name": "%", "inhibition of growth at 10 µM": 20}

Could you now look at the following compound, please?
Prompt line: Give the measured inhibition of growth at 10 µM of Cc1cc(S(=O)(=O)NC(=N)NCc2ccc(S(N)(=O)=O)cc2)c(SCc2cc3c(cc2Cl)OCO3)cc1Cl .
Response line: 29

====

System: HT-29
measurement-notes: Cytotoxicity against human HT-29 cells at 10 uM
Assay type: functional
condition-label: read-out: GI
experimental-endpoint: inhibition of growth at 10 µM (%)
Give bare numbers, in %.

{"chem-smiles": "Cc1cc(S(=O)(=O)NC(=N)NCc2ccc(S(N)(=O)=O)cc2)c(SCc2ccc(C(F)(F)F)cc2)cc1Cl", "observed-value": 79}
{"chem-smiles": "Cc1cc(S(=O)(=O)NC(=N)Nc2cccc(S(N)(=O)=O)c2)c(SCc2ccc(C(F)(F)F)cc2)cc1Cl", "observed-value": 20}
{"chem-smiles": "Cc1cc(S(=O)(=O)NC(=N)Nc2ccc(S(N)(=O)=O)cc2)c(SCc2ccc(C(F)(F)F)cc2)cc1Cl", "observed-value": 22}
{"chem-smiles": "Cc1cc(S(=O)(=O)NC(=N)Nc2cccc(S(N)(=O)=O)c2)c(SCc2ccccc2)cc1Cl", "observed-value": 8}

Could you now look at the following compound, please?
Prompt line: Give the measured inhibition of growth at 10 µM of Cc1cc(S(=O)(=O)NC(=N)NCc2ccc(S(N)(=O)=O)cc2)c(SCc2cc3c(cc2Cl)OCO3)cc1Cl .
Response line: 15

====

System: A498
measurement-notes: Cytotoxicity against human A498 cells at 10 uM
Type: functional
condition-label: read-out: GI
The threshold is inclusive: inhibition of growth at 10 µM of exactly 20% counts as True; values below receive False.

Check out these entries, answers already filled in.
{"chem-smiles": "Cc1cc(S(=O)(=O)NC(=N)Nc2ccc(S(N)(=O)=O)cc2)c(SCc2ccc(C(F)(F)F)cc2)cc1Cl", "cat": "False"}
{"chem-smiles": "Cc1cc(S(=O)(=O)NC(=N)NCc2ccc(S(N)(=O)=O)cc2)c(SCc2ccccc2)cc1Cl", "cat": "True"}
{"chem-smiles": "Cc1cc(S(=O)(=O)NC(=N)NCc2ccc(S(N)(=O)=O)cc2)c(SCc2ccc(C(F)(F)F)cc2)cc1Cl", "cat": "True"}
{"chem-smiles": "Cc1cc(S(=O)(=O)NC(=N)NCc2ccc(S(N)(=O)=O)cc2)c(SCc2cc3c(cc2Cl)OCO3)cc1Cl", "cat": "False"}

Prompt line: Say whether Cc1cc(S(=O)(=O)NC(=N)Nc2nnc(S(N)(=O)=O)s2)c(SCc2cccc3ccccc23)cc1Cl shows inhibition of growth at 10 µM of 20% or more.
Response line: True

Prompt line: Say whether Cc1cc(S(=O)(=O)NC(=N)Nc2cccc(S(N)(=O)=O)c2)c(SCc2ccccc2)cc1Cl shows inhibition of growth at 10 µM of 20% or more.
Response line: False

Prompt line: Say whether Cc1cc(S(=O)(=O)NC(=N)Nc2cccc(S(N)(=O)=O)c2)c(SCc2ccc(C(F)(F)F)cc2)cc1Cl shows inhibition of growth at 10 µM of 20% or more.
Response line: False
